The origin of these recorded values is ChEMBL document CHEMBL1151757.

tested on: Caudate; assay: Drug uptake in anesthetized cynomolgus monkey brain caudate after 65 mins postinjection; format: ADME, organism-based, Macaca fascicularis, Caudate nucleus; settings: in vivo
Field: label. Allowed values: class 1 (Drug uptake < 4) or class 0 (Drug uptake >= 4).

> print(dat)
                                   compound  assay.system      cat
1  O=C(OCCC[18F])C1C2CCC(CC1c1cccc(/C=C\Br)c1)N2 (stereo not given)       Caudate  class 0
2  O=C(OCC[18F])C1C2CCC(CC1c1ccc(/C=C\I)cc1)N2 (stereo not given)       Caudate  class 1
3  O=C(OCC[18F])C1C2CCC(CC1c1cccc(/C=C\I)c1)N2 (stereo not given)       Caudate  class 1
